Each entry below lists one item and its recorded pEC50 value.
Target: mAChR M1 (UniProt P11229)
Assay: mAChR M1 cell-based functional assay (calcium mobilization, potentiation of EC20 acetylcholine response)
Conditions: CHO-K1 cells expressing mAChR M1; increase in EC20 acetylcholine response; >10 μM estimated where no plateau in the curve
Keep in mind that pEC50 stands for -log10 of concentration in molar terms.

> print(dat)
                                   molecule  readout.type  value.observed
1  CN1CCC2(C1)C(=O)N(Cc1c(F)cc(-c3cccc4nn(C)cc34)cc1F)c1ccccc12 (stereo not shown)         pEC50            5.27

// lookup pEC50 | system=mAChR M1 (UniProt P11229) | key= CN1CCC2(C1)C(=O)N(Cc1ccc(-c3cnn(C)c3)cc1F)c1ccccc12 (single isomer, unassigned) [Compound B31]
5.42

---

Target: mAChR M1 (UniProt P11229)
Sequence (P11229 1-460): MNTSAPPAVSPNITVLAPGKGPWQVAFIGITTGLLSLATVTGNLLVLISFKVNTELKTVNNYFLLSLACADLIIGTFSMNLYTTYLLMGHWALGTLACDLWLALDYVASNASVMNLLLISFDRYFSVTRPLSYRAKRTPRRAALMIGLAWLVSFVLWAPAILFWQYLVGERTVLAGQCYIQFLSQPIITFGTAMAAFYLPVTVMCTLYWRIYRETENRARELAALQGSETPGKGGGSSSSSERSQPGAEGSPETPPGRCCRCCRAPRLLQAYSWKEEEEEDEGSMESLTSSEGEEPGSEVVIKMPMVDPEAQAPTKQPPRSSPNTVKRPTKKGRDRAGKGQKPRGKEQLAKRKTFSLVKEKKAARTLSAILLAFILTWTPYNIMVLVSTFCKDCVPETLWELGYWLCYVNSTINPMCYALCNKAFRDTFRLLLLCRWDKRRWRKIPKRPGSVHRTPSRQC
Test: mAChR M1 cell-based functional assay (calcium mobilization, potentiation of EC20 acetylcholine response)
Settings: % ACh maximum at 30 μM
Rule: fulfilled for Emax not less than 50%, not fulfilled for anything less.

// known answers, use as guide
> print(dat)
                                   molecule  assigned.class
1  Cn1cc(-c2ccc(CN3C(=O)C4(CCN(C5CCCSC5)CC4)c4ccccc43)c(F)c2)cn1 (stereo not drawn)   not fulfilled
2  Cn1cc(-c2ccc(CN3C(=O)C4(CCN(C5CCCCC5)C4)c4ccccc43)c(F)c2)cn1 (stereo not drawn) [Compound B5]       fulfilled

Does the reported Emax for Cn1cc2c(-c3cc(F)c(CN4C(=O)C5(CCNC5)c5ccccc54)c(F)c3)cccc2n1 (stereo not drawn) fall at or above the 50% mark?
fulfilled

Does the reported Emax for Cn1cc(-c2ccc(CN3C(=O)C4(CCN(C5CCCOC5)C4)c4ccccc43)c(F)c2)cn1 (stereo not drawn) [Compound B19] fall at or above the 50% mark?
fulfilled

Does the reported Emax for `Cn1cc(-c2ccc(CN3C(=O)C4(CCN(C5CCSCC5)CC4)c4ccccc43)c(F)c2)cn1` fall at or above the 50% mark?
not fulfilled

Does the reported Emax for Cn1cc(-c2ccc(CN3C(=O)C4(CCN(CC5CCCCC5)C4)c4ccccc43)c(F)c2)cn1 (single isomer, unassigned) [Compound B73] fall at or above the 50% mark?
not fulfilled

---

Each entry below lists one item and its recorded Emax value.
Molecular target: mAChR M1 (UniProt P11229)
Test: mAChR M1 cell-based functional assay (calcium mobilization, potentiation of EC20 acetylcholine response)
Details: % ACh maximum at 30 μM
Number plus unit, in that order.

Record excerpt, results attached:
> print(dat)
                                    molecule  readout.type  value.observed
 1  Cn1cc(-c2ccc(CN3C(=O)C4(CCN(C(=O)c5ccccc5)C4)c4ccccc43)c(F)c2)cn1 (single isomer, unassigned) [Compound B47]          Emax             38%
 2  Cn1cc(-c2ccc(CN3C(=O)C4(CCN(C5CCOC5)CC4)c4ccccc43)c(F)c2)cn1 (stereo not drawn)          Emax             36%
 3  CN1CCC(N2CCC3(CC2)C(=O)N(Cc2ccc(-c4cnn(C)c4)cc2F)c2ccccc23)C1 (stereo not drawn)          Emax             55%
 4  Cn1cc(-c2ccc(CN3C(=O)C4(CCN(C5CCCOC5)C4)c4ccccc43)c(F)c2)cn1 (single isomer, unassigned) [Compound B35]          Emax             57%
 5  Cn1cc(-c2ccc(CN3C(=O)C4(OCCO4)c4ccccc43)c(F)c2)cn1          Emax             86%
 6  Cn1cc(-c2ccc(CN3C(=O)C4(CCN(S(C)(=O)=O)C4)c4ccccc43)c(F)c2)cn1 (stereo not drawn)          Emax             35%
 7  CN1CCC2(CC1)C(=O)N(Cc1c(F)cc(-c3ccc4nn(C)cc4c3)cc1F)c1ccccc12          Emax             26%
 8  Cn1cc(-c2ccc(CN3C(=O)C4(CCN(C5CCCCC5)C4)c4ccccc43)c(F)c2)cn1 (single isomer, unassigned) [Compound B2]          Emax             73%
 9  Cn1cc(-c2ccc(CN3C(=O)C4(CCN(C5CCCC5)C4)c4ccccc43)c(F)c2F)cn1 (stereo not drawn)          Emax             52%
10  Cn1cc(-c2ccc(CN3C(=O)C4(CCN(C5CCCCC5)C4)c4ccccc43)c(F)c2)cn1 (single isomer, unassigned) [Compound B58]          Emax             39%

Now for the molecule whose Emax we want.
Return reported Emax; argument: CN1CCC2(C1)C(=O)N(Cc1ccc(-c3cnn(C)c3)cc1F)c1ccccc12 (single isomer, unassigned) [Compound B16]
46%

---

Target: mAChR M1 (UniProt P11229)
Sequence (P11229 1-460): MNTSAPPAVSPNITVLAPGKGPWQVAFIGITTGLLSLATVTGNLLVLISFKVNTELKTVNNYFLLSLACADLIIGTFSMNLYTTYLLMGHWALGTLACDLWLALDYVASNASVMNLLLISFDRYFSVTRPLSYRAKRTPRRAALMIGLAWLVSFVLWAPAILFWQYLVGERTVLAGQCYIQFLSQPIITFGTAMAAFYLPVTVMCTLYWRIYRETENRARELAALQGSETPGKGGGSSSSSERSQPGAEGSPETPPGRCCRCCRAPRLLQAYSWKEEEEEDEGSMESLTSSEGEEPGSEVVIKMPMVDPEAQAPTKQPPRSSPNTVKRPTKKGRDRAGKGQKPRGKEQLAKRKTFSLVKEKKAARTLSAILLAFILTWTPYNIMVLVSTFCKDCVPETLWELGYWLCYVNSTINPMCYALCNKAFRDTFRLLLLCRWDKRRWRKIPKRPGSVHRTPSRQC
Test: mAChR M1 cell-based functional assay (calcium mobilization, potentiation of EC20 acetylcholine response)
Settings: CHO-K1 cells expressing mAChR M1; increase in EC20 acetylcholine response; >10 μM estimated where no plateau in the curve
Each entry below lists one item and its recorded EC50 value.

Record excerpt, results attached:
> print(dat)
                                   molecule              system.tested  value.observed
1  Cn1cc(-c2ccc(CN3C(=O)C4(CCN(C(=O)C5CCCCC5)C4)c4ccccc43)c(F)c2)cn1 (centres unmarked)  mAChR M1 (UniProt P11229)         > 10 µM
2  CN1CCC(N2CCC3(CC2)C(=O)N(Cc2ccc(-c4cnn(C)c4)cc2F)c2ccccc23)CC1  mAChR M1 (UniProt P11229)          5.9 µM

// lookup EC50 | system=mAChR M1 (UniProt P11229) | key= Cn1cc2c(-c3cc(F)c(CN4C(=O)C5(CCNC5)c5ccccc54)c(F)c3)cccc2n1 (centres unmarked)
7.2 µM

// lookup EC50 | system=mAChR M1 (UniProt P11229) | key= Cn1cc(-c2ccc(CN3C(=O)C4(CCN(Cc5ccccc5)C4)c4ccccc43)c(F)c2)cn1 (centres unmarked)
> 10 µM

// lookup EC50 | system=mAChR M1 (UniProt P11229) | key= Cn1cc(-c2ccc(CN3C(=O)C4(CCN(C(=O)C5CCC5)C4)c4ccccc43)c(F)c2)cn1 (centres unmarked)
6.2 µM

---

Target: UniProt P11229
Sequence (P11229 1-460): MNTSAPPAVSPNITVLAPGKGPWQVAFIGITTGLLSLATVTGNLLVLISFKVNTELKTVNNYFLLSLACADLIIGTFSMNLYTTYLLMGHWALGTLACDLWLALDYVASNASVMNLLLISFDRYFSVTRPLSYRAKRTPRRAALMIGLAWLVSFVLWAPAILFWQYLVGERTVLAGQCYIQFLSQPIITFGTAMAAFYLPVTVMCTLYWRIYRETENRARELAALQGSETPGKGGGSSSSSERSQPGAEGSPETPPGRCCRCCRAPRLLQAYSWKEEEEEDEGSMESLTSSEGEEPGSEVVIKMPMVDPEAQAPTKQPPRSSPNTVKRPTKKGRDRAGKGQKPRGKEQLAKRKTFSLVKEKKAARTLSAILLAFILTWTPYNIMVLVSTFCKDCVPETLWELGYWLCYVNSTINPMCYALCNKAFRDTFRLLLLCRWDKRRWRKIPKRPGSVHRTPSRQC
Test: mAChR M1 cell-based functional assay (calcium mobilization, potentiation of EC20 acetylcholine response)
Details: CHO-K1 cells expressing mAChR M1; increase in EC20 acetylcholine response; >10 μM estimated where no plateau in the curve
READOUT TYPE: pEC50
Keep in mind that pEC50 stands for -log10 of concentration in molar terms.

Record excerpt, results attached:
> print(dat)
                                   compound   system.tested  readout.type  value.observed
1  Cn1cc(-c2ccc(CN3C(=O)C4(CCN(c5ncccn5)C4)c4ccccc43)c(F)c2)cn1 (stereo not drawn)  UniProt P11229         pEC50            5.72
2  Cn1cc(-c2ccc(CN3C(=O)C4(CCN(C5CNC5)C4)c4ccccc43)c(F)c2)cn1 (stereo not drawn)  UniProt P11229         pEC50            5.22
3  Cn1cc(-c2ccc(CN3C(=O)C4(CCN(C5CCCCC5F)CC4)c4ccccc43)c(F)c2)cn1 (stereo not drawn)  UniProt P11229         pEC50            5.64
4  Cn1cc(-c2ccc(CN3C(=O)C4(CCN(C5COC5)C4)c4ccccc43)c(F)c2)cn1 (stereo not drawn)  UniProt P11229         pEC50            5.43

Return reported pEC50; argument: Cn1cc(-c2ccc(CN3C(=O)C4(CCN(C5CCCC5)C4)c4ccccc43)cc2)cn1 (stereo not drawn)
5.89

Return reported pEC50; argument: Cn1cc(-c2ccc(CN3C(=O)C4(CCN(C5CCCNC5)CC4)c4ccccc43)c(F)c2)cn1 (stereo not drawn)
5.30

Return reported pEC50; argument: Cn1cc(-c2ccc(CN3C(=O)C4(CCN(C5CCCOC5)C4)c4ccccc43)c(F)c2)cn1 (single isomer, unassigned) [Compound B34]
5.41

Return reported pEC50; argument: Cn1cc(-c2cc(F)c(CN3C(=O)C4(CCN(C5CCCC5)C4)c4ccccc43)cc2F)cn1 (stereo not drawn)
5.62

Return reported pEC50; argument: Cn1cc(-c2ccc(CN3C(=O)C4(CCN(C5CCCCC5)C4)c4ccccc43)c(F)c2)cn1 (single isomer, unassigned) [Compound B2]
5.82

Return reported pEC50; argument: Cn1cc(-c2ccc(CN3C(=O)C4(CCN(CC5CC5)C4)c4ccccc43)c(F)c2)cn1 (stereo not drawn)
5.62

Return reported pEC50; argument: Cn1cc(-c2cc(F)c(CN3C(=O)C4(CCN(C5CCCC5)C4)c4ccccc43)c(F)c2)cn1 (stereo not drawn)
5.77

Return reported pEC50; argument: CC(C)N1CCC2(C1)C(=O)N(Cc1ccc(-c3cnn(C)c3)cc1F)c1ccccc12 (stereo not drawn)
5.36
